Molecular target: Tyrosine-protein phosphatase non-receptor type 1 (Homo sapiens, UniProt P18031)
Sequence (P18031 whole entry): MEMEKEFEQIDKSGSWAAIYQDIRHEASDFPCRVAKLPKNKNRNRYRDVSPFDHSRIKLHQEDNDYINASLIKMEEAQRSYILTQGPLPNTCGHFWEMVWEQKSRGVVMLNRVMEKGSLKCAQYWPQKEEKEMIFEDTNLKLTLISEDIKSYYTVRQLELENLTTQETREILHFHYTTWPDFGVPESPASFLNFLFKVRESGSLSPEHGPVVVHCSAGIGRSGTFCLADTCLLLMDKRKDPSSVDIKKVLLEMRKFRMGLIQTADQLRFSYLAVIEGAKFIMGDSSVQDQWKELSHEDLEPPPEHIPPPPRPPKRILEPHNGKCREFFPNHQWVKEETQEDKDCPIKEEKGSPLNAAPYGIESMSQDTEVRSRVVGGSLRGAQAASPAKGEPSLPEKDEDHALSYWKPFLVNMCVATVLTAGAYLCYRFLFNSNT
recorded_metric: IC50 (µM)
Answers are plain numbers, in µM.

* C=C(CC[C@@H](C)[C@H]1CC[C@H]2[C@@H]3CCC4=CC(=O)CC[C@]4(C)[C@H]3CC[C@]12C)C(C)C | 15.3
* C=C(CC[C@@H](C)[C@H]1CC[C@H]2[C@@H]3CC[C@H]4[C@H](C)[C@@H](O)CC[C@]4(C)[C@H]3CC[C@]12C)C(C)C | 19.5

Suppose we examine the compound C=C(CC[C@@H](C)[C@H]1CC[C@@H]2[C@]1(C)CC[C@@H]1[C@@]3(C)CC[C@H](OC(C)=O)[C@@H](C)[C@@H]3CC[C@@]21O)C(C)C ; what IC50 value has been reported?
22.7

Data origin, for the record: ChEMBL document CHEMBL2321710
